# assay_summary: qHTS Assay for Spectroscopic Profiling in A350 Spectral Region
# measurement_context: Compound autofluorescence, 340/450 nm, Alexa 350 dye-equivalents
# From the text: NIH Molecular Libraries Screening Centers Network [MLSCN] NIH Chemical Genomics Center [NCGC] Occasionally, the artifactual effect may originate from the compounds own spectral or other biophysical properties which generally tend to track its assay concentration. […] A standard curve of Alexa 350 (A 350) present on each plate as six-point concentration series, was used to compute a normalized fluorescence response, termed dye-equivalent concentration, for each compound at each concentration. […]
Out of some 59,000 compounds screened, about 6,500 (11%) were called active. Not shown: some 15% with an inconclusive outcome. No stated cut-off is given here; in the data, active means max dye-equivalent concentration above about 10 nM; inconclusive means mostly about 1.1 nM to 9.6 nM; inactive means weaker than that. Shown is part of a subset that was picked to be rich in actives.
Answer with one of the outcomes given here: active, inactive

{"compound": "Cc1ccc2c(NC(=O)C3CC3)cccc2n1", "discrete_label": "inactive"}
{"compound": "Cc1cc2c(cc1C)NC1=C(N2)O[C@H](c2c[nH]c3ccc(COc4ccccc4)cc23)C1=O", "discrete_label": "inactive"}
{"compound": "CC1(C)Cc2ccccc2-c2nc(CN3CCOCC3)[nH]c(=O)c21", "discrete_label": "inactive"}
{"compound": "CN(CCc1ccccn1)S(=O)(=O)c1ccc2c3c(cccc13)C(=O)N2", "discrete_label": "active"}
{"compound": "O=C(Nc1cccc(F)c1)N1CC2(CCN(C(=O)c3csnn3)CC2)C1", "discrete_label": "inactive"}
{"compound": "COc1ccc(OC)c(S(=O)(=O)N(C)CC(=O)N2CCN(c3ccccc3)CC2)c1", "discrete_label": "inactive"}

## Task Call for entry Cc1cc(C)cc(NC(=O)C2CCN(c3nc(C)cc(C)n3)CC2)c1 :
## Result inactive

## Task Call for entry c1ccc(-n2ncc3c(N4CCCC4)ncnc32)cc1 :
## Result inactive

## Task Call for entry COc1ccc(N2C(=O)CC(N3CCC(C(N)=O)CC3)C2=O)cc1 (centres undefined) :
## Result inactive

----------
# assay_summary: qHTS Assay for Spectroscopic Profiling in A350 Spectral Region
# measurement_context: Compound autofluorescence, 340/450 nm, Alexa 350 dye-equivalents
About 6,500 (11%) of roughly 59,000 compounds were called active. About 15% were inconclusive and are not listed. No stated cut-off is given here; in the data, active means max dye-equivalent concentration above about 10 nM; inconclusive means mostly about 1.1 nM to 9.6 nM; inactive means weaker than that. This is one part of a sample in which actives are shown more often than they occur.
Answer with one of the outcomes given here: active, inactive

{"compound": "CCOC(=O)c1c(C(C#N)C#N)cc(C)nc1C", "discrete_label": "inactive"}
{"compound": "CCCCOC(=O)c1[nH]c(C)c(C(=O)OC)c1C", "discrete_label": "active"}
{"compound": "CCCn1c(=O)c2ccccc2n2c(SCC(=O)/C(C#N)=C(\\C)N)nnc12", "discrete_label": "inactive"}
{"compound": "COc1ccc2[nH]c3cc4c(=O)c5cc(OC)ccc5[nH]c4cc3c(=O)c2c1", "discrete_label": "inactive"}
{"compound": "COc1ccc(Cl)cc1NC(=O)C1CC(=O)N(c2ccc(F)cc2)C1 (stereo unspecified)", "discrete_label": "inactive"}

## Task Call for entry CCOC(=O)CSc1nnc(CNC(=O)c2cccs2)n1-c1ccccc1 :
## Result inactive

## Task Call for entry CCOC(=O)c1oc2ccccc2c1NC(=O)c1cccs1 :
## Result active

## Task Call for entry Cc1ccc(N2CCN(S(=O)(=O)N(C)C)CC2)cc1Cl :
## Result inactive

## Task Call for entry c1cc(-n2cnnn2)ccc1NC1=NCCC1 :
## Result inactive

## Task Call for entry Cc1ccc(NC(=O)N2CCC(C(=O)NCc3ccc(F)cc3)CC2)cc1 :
## Result inactive

## Task Call for entry O=C(COc1ccccc1F)NC1CC1 :
## Result inactive

## Task Call for entry CC1(N2CCOCC2)CC2(O)C(=[N+]1[O-])CCc1nonc12 (stereo unspecified) :
## Result inactive

## Task Call for entry O=C1CC2(CCCCC2)Oc2ccc(OCC(=O)N3CCOCC3)cc21 :
## Result active

## Task Call for entry COC(=O)c1c(NC(=O)c2cccs2)sc2c1CCCC2 :
## Result active

## Task Call for entry C[C@@H](N)[C@@H](C)Cc1ccccc1 :
## Result inactive

## Task Call for entry Cc1cnc(CNc2ncncc2-c2ccccc2Cl)cn1 :
## Result inactive

## Task Call for entry O=C(COc1ccc2c3c(c(=O)oc2c1)CCC3)NC1CCCCC1 :
## Result active

## Task Call for entry COCCn1c(=O)c(-c2cccs2)nc2cncnc21 :
## Result active

## Task Call for entry CC[C@]1(O)C[C@@H]2CN(CCc3c([nH]c4ccccc34)[C@@](C(=O)OC)(c3cc4c(cc3OC)N(C)[C@H]3[C@@](O)(C(=O)OC)[C@H](OC(C)=O)[C@]5(CC)C=CCN6CC[C@]43[C@@H]65)C2)C1 :
## Result active

## Task Call for entry O=C(Nc1cccc(F)c1)N1CCC2(CC1)CCN(S(=O)(=O)c1ccccc1)CC2 :
## Result inactive
